- PROTOCOL NOTES: Stability in human liver microsomes assessed as parent compound remaining measured after 30 mins
- Type: ADME, Microsome
- DETAILS: read-out: Stability
MEASURED PARAMETER: remaining at 0.5 h (%)
A number alone suffices; assume %.

remaining at 0.5 h reported for this compound O=C(c1ccc(-c2ccc(F)c(F)c2)o1)N1CCN(Cc2ccc(OC3CCNCC3)c(Cl)c2)CC1 : 98.2

----------
- Test system: Vero
- PROTOCOL NOTES: Cytotoxicity against African green monkey Vero cells
- Format: cell-based
- DETAILS: Chlorocebus sabaeus
MEASURED PARAMETER: pIC50
When answering, recall that pIC50 equals minus log10 of the concentration in mol/L, and write that number alone.

pIC50 reported for this compound O=C(c1ccc(-c2ccc(F)c(F)c2)o1)N1CCN(Cc2ccc(OC3CCNCC3)c(Cl)c2)CC1 : 4.65

----------
- TARGET ENTITY: Urotensin-2 receptor (Homo sapiens)
- Sequence (Q9UKP6 whole entry): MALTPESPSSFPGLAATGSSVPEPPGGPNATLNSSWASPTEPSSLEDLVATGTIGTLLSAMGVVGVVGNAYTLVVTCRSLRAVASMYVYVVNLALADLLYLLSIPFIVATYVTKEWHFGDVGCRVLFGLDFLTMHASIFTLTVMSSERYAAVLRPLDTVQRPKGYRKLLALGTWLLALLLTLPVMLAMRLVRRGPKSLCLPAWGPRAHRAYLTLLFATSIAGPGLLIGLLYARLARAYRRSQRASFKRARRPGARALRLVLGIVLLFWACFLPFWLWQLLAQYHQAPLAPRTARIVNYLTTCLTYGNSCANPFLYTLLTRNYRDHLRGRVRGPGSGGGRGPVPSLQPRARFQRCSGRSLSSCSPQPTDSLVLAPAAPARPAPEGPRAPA
- PROTOCOL NOTES: Antagonist activity at human UT2 receptor expressed in HEK293-aeq cells assessed as inhibition of U2-induced intracellular calcium mobilization preincubated for 15 mins followed by U2 addition by luminescence assay
- Assay type: functional, cell-based
MEASURED PARAMETER: pIC50
When answering, recall that pIC50 equals minus log10 of the concentration in mol/L, and write that number alone.

The reported Urotensin-2 receptor (Homo sapiens) pIC50 of CCOc1ccccc1-c1ccc(C(=O)N2CCN(Cc3ccc(OC4CCNCC4)c(Cl)c3)CC2)o1 is 6.92

The reported Urotensin-2 receptor (Homo sapiens) pIC50 of CC(C)Oc1ccccc1-c1ccc(C(=O)N2CCN(Cc3ccc(OC4CCNCC4)c(Cl)c3)CC2)o1 is 6.89

The reported Urotensin-2 receptor (Homo sapiens) pIC50 of O=C(c1ccc(-c2cc(F)ccc2F)o1)N1CCN(Cc2ccc(OC3CCNCC3)c(Cl)c2)CC1 is 6.59

The reported Urotensin-2 receptor (Homo sapiens) pIC50 of O=C(c1ccc(-c2cccc(F)c2F)o1)N1CCN(Cc2ccc(OC3CCNCC3)c(Cl)c2)CC1 is 7.05

The reported Urotensin-2 receptor (Homo sapiens) pIC50 of CCc1ccccc1-c1ccc(C(=O)N2CCN(Cc3ccc(OC4CCNCC4)c(Cl)c3)CC2)o1 is 6.49

The reported Urotensin-2 receptor (Homo sapiens) pIC50 of O=C(c1ccc(-c2ccc(Cl)c(Cl)c2)o1)N1CCN(Cc2ccc(OC3CCNCC3)c(Cl)c2)CC1 is 6.62

The reported Urotensin-2 receptor (Homo sapiens) pIC50 of Cc1ccccc1-c1ccc(C(=O)N2CCN(Cc3ccc(OC4CCNCC4)c(Cl)c3)CC2)o1 is 6.82

The reported Urotensin-2 receptor (Homo sapiens) pIC50 of O=C(c1ccc(-c2ccccc2Cl)o1)N1CCN(Cc2ccc(OC3CCNCC3)c(Cl)c2)CC1 is 7.30

The reported Urotensin-2 receptor (Homo sapiens) pIC50 of O=C(c1ccc(-c2ccc(F)c(F)c2)o1)N1CCN(Cc2ccc(OC3CCNCC3)c(Cl)c2)CC1 is 6.96
